Reference for the values: ChEMBL document CHEMBL3804804

system: Mycobacterium tuberculosis; experiment: Antimycobacterial activity against Mycobacterium tuberculosis H37Rv after 10 days by micro broth dilution method; type: functional; details: 240 h

>  <compound>
CC(=O)Nc1nc(N[C@@H](C)C(=O)OC(C)(C)C)c2nc[nH]c2n1

>  <MIC / µg/mL>
12.5

$$$$
>  <compound>
Nc1nc(NCC(=O)N[C@@H](Cc2ccccc2)C(=O)O)c2nc[nH]c2n1.O.O

>  <MIC / µg/mL>
6.25

$$$$
>  <compound>
Nc1nc(NCC(=O)O)c2nc[nH]c2n1

>  <MIC / µg/mL>
12.5

$$$$
>  <compound>
CC(C)C[C@H](NC(=O)CNc1ncnc2[nH]cnc12)C(=O)O.O

>  <MIC / µg/mL>
12.5

$$$$
>  <compound>
Nc1nc(NCC(=O)N[C@@H](CCC(=O)O)C(=O)O)c2nc[nH]c2n1

>  <MIC / µg/mL>
0.7

$$$$
>  <compound>
C[C@H](NC(=O)CNc1nc(N)nc2[nH]cnc12)C(=O)O.O

>  <MIC / µg/mL>
6.25

$$$$
>  <compound>
O=C(O)CCNc1[nH]cnc2ncnc1-2

>  <MIC / µg/mL>
12.5

$$$$
>  <compound>
COC(=O)CC[C@H](NC(=O)CNc1ncnc2[nH]cnc12)C(=O)OC

>  <MIC / µg/mL>
12.5

$$$$
>  <compound>
CSCC[C@H](NC(=O)CNc1ncnc2[nH]cnc12)C(=O)O.O

>  <MIC / µg/mL>
12.5

$$$$
>  <compound>
COC(=O)CNc1nc(N)nc2[nH]cnc12.Cl.Cl

>  <MIC / µg/mL>
6.25

$$$$
>  <compound>
COC(=O)[C@H](CCSC)NC(=O)CNc1nc(NC(C)=O)nc2[nH]cnc12

>  <MIC / µg/mL>
3.1

$$$$
>  <compound>
COC(=O)C[C@H](NC(=O)CNc1nc(NC(C)=O)nc2[nH]cnc12)C(=O)OC

>  <MIC / µg/mL>
12.5

$$$$
